Test system: RAW-Dual
assay text: NF-kB SEAP reporter activity, fold change vs agonist alone; higher = enhanced NF-kB activity
applied conditions: library stock concentration (final ~1000-fold dilution): 10 mM; cytotoxicity flag (confluency mask): not cytotoxic; agonist: MPLA (TLR4) […]
In all, about 2,900 compounds were measured (“NF-kB SEAP reporter activity, fold change vs agonist alone”: median about 0.99, highest 2% from about 2.6 on). Many of the other results were omitted from the sample, so the highest values are more common in it than they were.
reported endpoint: NF-kB SEAP reporter activity
Please reply with the number alone, leaving off any unit.

Before answering, review these 2 worked examples.
{"columns": ["molecule", "study system", "NF-kB SEAP reporter activity"],
 "data": [
  ["COc1ccccc1N1CCN(CCCNc2cc(=O)n(C)c(=O)n2C)CC1.Cl", "RAW-Dual", 0.935],
  ["COC1CC2CCC(C)C(O)(O2)C(=O)C(=O)N2CCCCC2C(=O)OC(C(C)CC2CCC(O)C(OC)C2)CC(=O)C(C)C=C(C)C(O)C(OC)C(=O)C(C)CC(C)C=CC=CC=C1C (stereo not drawn)", "RAW-Dual", 1.5]
]}

For the next question, use this molecule.
Reported NF-kB SEAP reporter activity for COC1CC2CCC(C)C(O)(O2)C(=O)C(=O)N2CCCCC2C(=O)OC(C(C)CC2CCC(OCCO)C(OC)C2)CC(=O)C(C)C=C(C)C(O)C(OC)C(=O)C(C)CC(C)C=CC=CC=C1C (stereo not drawn) : what is it? 1.92

* * *

Tested on: RAW-Dual
assay text: NF-kB SEAP reporter activity, fold change vs agonist alone; cytotoxicity flag (confluency mask): not cytotoxic; higher = enhanced NF-kB activity
applied conditions: agonist: Pam3CSK4 (TLR2/1) 0.1 ug/mL
In all, about 2,900 compounds were measured (“NF-kB SEAP reporter activity, fold change vs agonist alone”: median about 0.99, highest 2% from about 2.6 on). What follows is part of a selection rich in the highest values, with near analogues and random picks from the rest.
# NF-kB SEAP reporter activity >= 0.7 gives condition met, anything below gives condition not met

Please indicate if the recorded NF-kB SEAP reporter activity for N#CCC1(n2cc(-c3ncnc4[nH]ccc34)cn2)CN(C2CCN(C(=O)c3ccnc(C(F)(F)F)c3F)CC2)C1 (library stock concentration (final ~1000-fold dilution): 10 mM) meets or exceeds 0.7. condition met

# repeat for NC(CSC(c1ccccc1)(c1ccccc1)c1ccccc1)C(=O)O (stereo not given) (library stock concentration (final ~1000-fold dilution): 10 mM) condition not met

Similarly, COC1=CC(c2cc3ccccc3[nH]2)=N/C1=C\c1[nH]c(C)cc1C.CS(=O)(=O)O (library stock concentration (final ~1000-fold dilution): 10 mM) ? condition met

# repeat for CC1(C)CCC2(C(=O)O)CCC3(C)C(=CCC4C5(C)CCC(=O)C(C)(C)C5CCC43C)C2C1 (stereo not given) (library stock concentration (final ~1000-fold dilution): 10 mM) condition met

Repeat with Cc1nc(Nc2ncc(C(=O)Nc3c(C)cccc3Cl)s2)cc(N2CCN(CCO)CC2)n1.O (library stock concentration (final ~1000-fold dilution): 10 mM) condition not met

* * *

Tested on: RAW-Dual
assay text: NF-kB SEAP reporter activity, fold change vs agonist alone; higher = enhanced NF-kB activity
applied conditions: library stock concentration (final ~1000-fold dilution): 10 mM; cytotoxicity flag (confluency mask): not cytotoxic; agonist: MPLA (TLR4) […]
Whole data set: some 2,900 compounds, median “NF-kB SEAP reporter activity, fold change vs agonist alone” near 0.99, cut for the highest 2% near 2.6. The entries come from a sample that favours the highest values as a whole.
Lab note: compare NF-kB SEAP reporter activity against 1. Equal or greater, write fulfilled. Smaller, write not fulfilled.

The examples below pair each entry with its known result.
{"columns": ["compound", "category"],
 "data": [
  ["CC(C)N1CCN(Cc2cnc(-c3cc(-c4cccc5[nH]ccc45)cc4[nH]ncc34)o2)CC1", "fulfilled"],
  ["N#Cc1ccnc(N2C(=O)CCC2C(=O)N(c2cncc(F)c2)C(C(=O)NC2CC(F)(F)C2)c2ccccc2Cl)c1 (centres undefined)", "fulfilled"],
  ["COc1nc2ccc(Br)cc2cc1C(c1ccccc1)C(O)(CCN(C)C)c1cccc2ccccc12 (centres undefined)", "not fulfilled"],
  ["CCC1OC(=O)C(C)C(OC2CC(C)(OC)C(O)C(C)O2)C(C)C(OC2OC(C)CC(N(C)C)C2O)C(C)(OC)CC(C)C(=O)C(C)C(O)C1(C)O (centres undefined)", "not fulfilled"],
  ["CCN(CC)Cc1ccc2cc(COC(=O)Nc3ccc(C(=O)NO)cc3)ccc2c1.Cl.O", "fulfilled"],
  ["O=C(Nc1ccc(O)cc1)c1ccccc1O", "fulfilled"],
  ["O=C(O)c1ccc(Br)c(O)c1", "fulfilled"],
  ["Nc1nc(-c2ccco2)c2cnn(Cc3ccccc3F)c2n1", "fulfilled"]
]}

Now for another entry.
Say whether O=C1C2C3CCC(C3)C2C(=O)N1CC1CCCCC1CN1CCN(c2nsc3ccccc23)CC1 (centres undefined) shows NF-kB SEAP reporter activity of 1 or more. fulfilled
